Origin of measurements: paper PMC4929832

target: Melanocortin MC3 receptor (Homo sapiens, UniProt P41968); assay: Melanocortin MC3 receptor binding assay
Sequence (P41968 whole entry): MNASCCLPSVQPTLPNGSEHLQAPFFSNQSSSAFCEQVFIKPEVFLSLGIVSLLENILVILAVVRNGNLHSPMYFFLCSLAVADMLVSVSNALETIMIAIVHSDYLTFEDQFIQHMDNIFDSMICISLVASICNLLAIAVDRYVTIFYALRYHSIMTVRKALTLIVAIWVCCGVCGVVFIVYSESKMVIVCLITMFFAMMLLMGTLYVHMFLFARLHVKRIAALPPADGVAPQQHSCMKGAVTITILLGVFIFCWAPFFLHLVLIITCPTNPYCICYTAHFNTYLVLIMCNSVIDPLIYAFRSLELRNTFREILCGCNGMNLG
pIC50: −log10 of the molar value.
OBSERVED PROPERTY: pIC50

O=C(Nc1nccs1)C(c1cc(F)ccc1O)N1Cc2ccccc2C1=O (stereo not shown) [EAI045] : < 4.52

* * *

molecular target: Progesterone Receptor (Homo sapiens, UniProt P06401); assay: Progesterone Receptor agonist assay; type: cell-based
Sequence (P06401 whole entry, species assumed): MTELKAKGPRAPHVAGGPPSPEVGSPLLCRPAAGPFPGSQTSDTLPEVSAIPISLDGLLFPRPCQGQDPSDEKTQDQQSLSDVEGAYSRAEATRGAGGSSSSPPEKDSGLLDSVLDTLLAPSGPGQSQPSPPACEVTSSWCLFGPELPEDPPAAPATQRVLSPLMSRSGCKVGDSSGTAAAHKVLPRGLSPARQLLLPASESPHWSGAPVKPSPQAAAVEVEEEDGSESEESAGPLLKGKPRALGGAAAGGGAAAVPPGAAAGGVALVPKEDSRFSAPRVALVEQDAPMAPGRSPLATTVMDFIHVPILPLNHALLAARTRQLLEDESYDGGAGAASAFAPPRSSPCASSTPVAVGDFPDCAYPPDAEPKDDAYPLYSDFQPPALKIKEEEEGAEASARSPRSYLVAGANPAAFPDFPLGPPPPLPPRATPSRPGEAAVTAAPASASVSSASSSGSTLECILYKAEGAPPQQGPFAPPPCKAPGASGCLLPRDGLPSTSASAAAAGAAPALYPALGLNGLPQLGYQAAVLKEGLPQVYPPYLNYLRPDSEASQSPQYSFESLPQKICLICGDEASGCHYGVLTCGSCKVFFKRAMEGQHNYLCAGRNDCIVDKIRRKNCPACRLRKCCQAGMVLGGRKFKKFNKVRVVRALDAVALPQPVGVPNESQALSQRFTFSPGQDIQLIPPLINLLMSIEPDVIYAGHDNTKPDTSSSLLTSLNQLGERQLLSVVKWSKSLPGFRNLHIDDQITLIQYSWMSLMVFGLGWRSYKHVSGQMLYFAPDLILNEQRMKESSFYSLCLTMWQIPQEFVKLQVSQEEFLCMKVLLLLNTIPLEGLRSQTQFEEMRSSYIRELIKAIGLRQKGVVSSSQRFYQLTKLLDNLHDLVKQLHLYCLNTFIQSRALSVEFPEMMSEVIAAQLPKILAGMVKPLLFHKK
OBSERVED PROPERTY: IC50

O=C(Nc1nccs1)C(c1cc(F)ccc1O)N1Cc2ccccc2C1=O (stereo not shown) : > 30 µM
